Target: SERT (Homo sapiens)
Assay: hSERT radioligand binding assay (3H-citalopram)
Set-up: expressed in transfected cells; host or cells: HEK-293
Conditions: hSERT membranes (HEK-293), 1.0 nM 3H-citalopram; read-out: SERT pKi (converted)
Measured Quantity: Ki

Consider the reported Ki for these molecules:
Molecule: COc1ccccc1O[C@H](c1cncc(F)c1)[C@H]1CCNC1
Ki: ≤ 10000 nM
//
Molecule: Fc1ccc(O[C@@H](c2ccccc2)C2CCNC2)cn1 (some centres unmarked)
Ki: ≤ 100 nM

In: Recorded Ki of COc1ccc(O[C@@H](c2ccccc2)C2CCNC2)cn1 (some centres unmarked) , please.
Out: ≤ 100 nM

In: For the molecule Cc1ccc(Cl)c(OC(c2cccnc2)[C@H]2CCNC2)c1Cl (some centres unmarked) , what Ki is on record?
Out: ≤ 100 nM

In: State the recorded Ki for this entry: Fc1cc(Cl)c(OC(c2nccs2)C2CCNC2)c(Cl)c1 (centres unmarked) [Example 5-11]
Out: ≤ 100 nM

* * *

Target: UniProtKB P31645
Assay: hSERT radioligand binding assay (3H-citalopram)
Parameters: expressed in transfected cells; host or cells: HEK-293
Conditions: hSERT membranes (HEK-293), 1.0 nM 3H-citalopram
Measured Quantity: SERT pKi

// solved cases for SERT pKi follow
Compound: Fc1c(Cl)ccc(O[C@@H](c2ncco2)[C@H]2CCNC2)c1Cl.O=C(O)C(F)(F)F [6-4]
Measured Quantity: SERT pKi
Reported Result: ≧7.0

Compound: Fc1cccc(O[C@@H](c2ccccc2)[C@H]2CCNC2)n1.O=C(O)C(F)(F)F [14-10]
Measured Quantity: SERT pKi
Reported Result: ≧5.0

Compound: Clc1cccc(O[C@@H](c2ncco2)[C@H]2CCNC2)c1.O=C(O)C(F)(F)F [6-45]
Measured Quantity: SERT pKi
Reported Result: ≧5.0

Compound: Cc1ccc(F)c(O[C@H](c2nccs2)[C@H]2CCNC2)c1Cl [Example 5-23]
Measured Quantity: SERT pKi
Reported Result: ≧7.0

Compound: Cc1ccc(F)c(O[C@H](c2nccs2)C2CCNC2)c1Cl (some centres unmarked) [Example 5-17]
Measured Quantity: SERT pKi
Reported Result: ≧7.0

In: Param item = Cc1cccnc1OC(c1ccccc1)C1CCNC1 (centres unmarked) [14-37] ; retrieve measured SERT pKi.
Out: ≧5.0

In: # get_value(readout='SERT pKi', item= CCc1cc(F)cc(F)c1O[C@@H](c1ncco1)[C@H]1CCNC1 [6-53] )
Out: ≧7.0

In: Using the record for Clc1ccc(O[C@@H](c2ccccc2)[C@H]2CCNC2)c(Cl)n1.O=C(O)C(F)(F)F [15-3] , report its SERT pKi.
Out: ≧7.0

* * *

Molecular target: SERT (Homo sapiens)
Experiment: hSERT radioligand binding assay (3H-citalopram)
Design: expressed in transfected cells; host or cells: HEK-293
Details: hSERT membranes (HEK-293), 1.0 nM 3H-citalopram
Excerpt: Membrane radioligand binding assays were used to measure inhibition of labeled ligand (^3H-citalopram or ^3H-nisoxetine or ^3H-WIN35428) binding to membranes prepared from cells expressing the respective human recombinant transporter (hSERT or hNET or hDAT) in order to determine the pKi values of test compounds at the transporters. […]
Measured Quantity: SERT pKi

Worked examples, 4 molecules total:
Chemical Smiles: O=C(O)C(F)(F)F.c1ccc(COc2ccccc2O[C@@H](c2ncco2)[C@H]2CCNC2)cc1
Measured Quantity: SERT pKi
Reported Result: ≧5.0

Chemical Smiles: Cc1cc(Cl)ccc1O[C@@H](c1ncco1)[C@H]1CCNC1.O=C(O)C(F)(F)F
Measured Quantity: SERT pKi
Reported Result: ≧7.0

Chemical Smiles: O=C(O)C(F)(F)F.c1ccc([C@H](Oc2cccnc2OC2CCCC2)[C@H]2CCNC2)cc1
Measured Quantity: SERT pKi
Reported Result: ≧7.0

Chemical Smiles: CCc1cc(F)ccc1O[C@H](c1cncc(F)c1)[C@@H]1CCNC1
Measured Quantity: SERT pKi
Reported Result: ≧7.0

Turning now to a further record.
In: Please provide the recorded SERT pKi for Fc1ccc(O[C@H](c2nccs2)[C@H]2CCNC2)cc1Cl , tested on SERT (Homo sapiens).
Out: ≧7.0

* * *

Molecular target: SERT (Homo sapiens, UniProt P31645)
Sequence (P31645 whole entry): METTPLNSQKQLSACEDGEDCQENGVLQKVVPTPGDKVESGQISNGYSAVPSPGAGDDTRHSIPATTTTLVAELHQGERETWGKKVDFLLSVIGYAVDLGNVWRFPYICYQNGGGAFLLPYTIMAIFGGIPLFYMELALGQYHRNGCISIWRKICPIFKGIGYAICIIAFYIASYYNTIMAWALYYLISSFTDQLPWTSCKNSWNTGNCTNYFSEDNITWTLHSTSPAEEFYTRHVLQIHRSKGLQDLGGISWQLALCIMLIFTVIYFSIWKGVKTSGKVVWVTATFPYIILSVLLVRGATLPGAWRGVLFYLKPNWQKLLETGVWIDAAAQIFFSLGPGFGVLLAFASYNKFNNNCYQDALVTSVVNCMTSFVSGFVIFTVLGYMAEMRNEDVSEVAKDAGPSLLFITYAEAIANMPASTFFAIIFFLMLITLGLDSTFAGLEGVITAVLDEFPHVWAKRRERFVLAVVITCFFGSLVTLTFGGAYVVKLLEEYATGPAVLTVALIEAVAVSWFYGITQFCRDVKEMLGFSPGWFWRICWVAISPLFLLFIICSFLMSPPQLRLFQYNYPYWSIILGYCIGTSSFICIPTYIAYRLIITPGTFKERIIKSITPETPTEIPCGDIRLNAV
Test: hSERT radioligand binding assay (3H-citalopram)
Parameters: expressed in transfected cells; host or cells: HEK-293
Details: hSERT membranes (HEK-293), 1.0 nM 3H-citalopram; read-out: SERT pKi (converted)
Recorded Ki, one value per entry.

In: Kindly state the measured Ki obtained for Fc1cc(Cl)cc(Cl)c1OC(c1cncc(Cl)c1)C1CCNC1 (stereo not drawn) with SERT (Homo sapiens, UniProt P31645).
Out: ≤ 100 nM

In: Param readout = Ki; param system = SERT (Homo sapiens, UniProt P31645); param query = Fc1cc(F)c(O[C@H](c2cccnc2)[C@H]2CCNC2)c(F)c1 ; response: value
Out: ≤ 100 nM

In: Field: Ki (SERT (Homo sapiens, UniProt P31645)). Entry: Fc1cncc(C(Oc2ccc(Cl)cc2Cc2ccccc2)C2CCNC2)c1 (stereo not drawn)
Out: ≤ 100 nM

In: Entry Fc1cccc(C(Oc2cccc3ccccc23)C2CCNC2)c1 (stereo not drawn) , system SERT (Homo sapiens, UniProt P31645): what Ki was measured?
Out: ≤ 100 nM

In: Any idea what Ki came out for Cc1ccccc1C(Oc1cccc2ccccc12)C1CCNC1 (stereo not drawn) on SERT (Homo sapiens, UniProt P31645)?
Out: ≤ 100 nM

* * *

Target: NET (Homo sapiens)
Sequence (P23975 whole entry): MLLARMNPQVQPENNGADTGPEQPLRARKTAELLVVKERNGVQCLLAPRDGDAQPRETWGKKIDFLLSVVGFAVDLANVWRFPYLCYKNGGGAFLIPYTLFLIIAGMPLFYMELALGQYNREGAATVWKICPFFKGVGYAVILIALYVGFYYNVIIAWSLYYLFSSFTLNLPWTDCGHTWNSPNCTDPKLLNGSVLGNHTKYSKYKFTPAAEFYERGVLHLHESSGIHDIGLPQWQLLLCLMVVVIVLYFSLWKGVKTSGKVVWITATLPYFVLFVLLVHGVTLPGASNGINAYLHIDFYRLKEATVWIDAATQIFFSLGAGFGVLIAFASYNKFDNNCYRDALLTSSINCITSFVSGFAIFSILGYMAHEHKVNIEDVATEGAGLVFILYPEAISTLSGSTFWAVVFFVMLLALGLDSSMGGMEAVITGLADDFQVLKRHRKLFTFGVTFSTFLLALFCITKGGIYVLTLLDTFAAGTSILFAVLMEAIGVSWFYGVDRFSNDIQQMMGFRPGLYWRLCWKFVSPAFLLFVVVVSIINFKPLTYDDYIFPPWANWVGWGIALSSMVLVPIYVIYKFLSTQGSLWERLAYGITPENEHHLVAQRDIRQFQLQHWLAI
Test: hNET radioligand binding assay (3H-nisoxetine)
Design: expressed in transfected cells; host or cells: HEK-293
Details: hNET membranes (HEK-293), 1.0 nM 3H-nisoxetine; read-out: NET pKi (converted)
Listed next: entries and their corresponding Ki.

Observe how each entry below is paired with its result.
Molecule: Cc1ccc(O[C@@H](c2ncco2)[C@H]2CCNC2)cc1 [6-48]
Measured On: NET (Homo sapiens)
Reported Result: ≤ 0.1 µM

Molecule: Clc1cc(Cl)cc(OC(c2ccoc2)C2CCNC2)c1 (stereo not drawn) [Example 9-1]
Measured On: NET (Homo sapiens)
Reported Result: ≤ 0.1 µM

Molecule: Cc1cc(Cl)cnc1O[C@@H](c1cncc(F)c1)[C@H]1CCNC1 [Example 17]
Measured On: NET (Homo sapiens)
Reported Result: ≤ 0.1 µM

Molecule: Fc1ccc(O[C@H](c2nccs2)[C@H]2CCNC2)c(Cl)c1 [Example 5-19]
Measured On: NET (Homo sapiens)
Reported Result: ≤ 10 µM

Molecule: Fc1cc(F)c(Cl)c(O[C@H](c2cncc(Cl)c2)[C@H]2CCNC2)c1Cl [Example 2-4]
Measured On: NET (Homo sapiens)
Reported Result: ≤ 10 µM

In: // map Clc1cccc(Cl)c1O[C@H](c1ccncc1)[C@H]1CCNC1 [Example 3-5] to recorded Ki (system: NET (Homo sapiens))
Out: ≤ 0.1 µM

In: Which measured Ki belongs to Clc1cncc(C(Oc2cc(Cl)c(Cl)cc2Cl)C2CCNC2)c1 (stereo not drawn) [Example 2-1] , tested on NET (Homo sapiens)?
Out: ≤ 10 µM

In: Provide value of Ki for this record tested with NET (Homo sapiens): Clc1ccc(O[C@@H](c2ccccc2)C2CCNC2)c(Cl)n1 (stereo partly drawn) [15-1]
Out: ≤ 0.1 µM

In: State its Ki on NET (Homo sapiens): Cc1cc(Cl)c(OC(c2nccs2)C2CCNC2)c(Cl)c1 (stereo not drawn) [Example 5-13]
Out: ≤ 10 µM

In: Tell me reported Ki for Clc1cc(Cl)cc(O[C@H](c2cncc(Cl)c2)[C@H]2CCNC2)c1 [Example 2-16] , tested with NET (Homo sapiens).
Out: ≤ 0.1 µM

In: Missing value: Ki, NET (Homo sapiens), entry Fc1ccc(F)c(O[C@H](c2ncco2)[C@H]2CCNC2)c1Cl [6-21] . Fill in?
Out: ≤ 10 µM

In: Report Ki for Fc1cc(Cl)ccc1OC(c1nccs1)C1CCNC1 (stereo not drawn) [Example 5-32] tested on NET (Homo sapiens).
Out: ≤ 10 µM

In: Value wanted: Ki (NET (Homo sapiens)) of entry Clc1cc(O[C@@H](c2ccccc2)C2CCNC2)ccn1 (stereo partly drawn) [16-3]
Out: ≤ 10 µM

In: Request - read-out Ki | tested on NET (Homo sapiens) | molecule Cc1cc(Cl)ccc1O[C@H](c1ncco1)[C@H]1CCNC1 [6-35]
Out: ≤ 10 µM

In: Form field - read-out: Ki; system: NET (Homo sapiens); submitted item: Fc1ccc(F)c(O[C@H](c2cnccn2)[C@H]2CCNC2)c1Cl [10-4]
Out: ≤ 10 µM

In: Kindly state the measured Ki obtained for Fc1cc(F)c(Cl)c(O[C@H](c2ncco2)[C@H]2CCNC2)c1Cl [6-10] with NET (Homo sapiens).
Out: ≤ 10 µM

In: Notebook entry, NET (Homo sapiens) assay: Ki of Fc1cc(F)c(O[C@@H](c2ccncc2)[C@H]2CCNC2)c(F)c1 [Example 3-1] = ?
Out: ≤ 10 µM

In: NET (Homo sapiens) / Ki / Clc1cc(Cl)c(O[C@@H](c2ncco2)[C@H]2CCNC2)cc1Cl [6-1] : value?
Out: ≤ 0.1 µM
